These entries and their values trace back to paper PMC6269736.

Can you tell me IC50 for the items I'm about to list?
tested on: P. falciparum clone W2 (chloroquine-resistant); assay: In vitro antiplasmodial activity, Giemsa-stained smear parasitaemia after 48 h; format: cell-based, Plasmodium falciparum; conditions: Plasmodium falciparum; P. falciparum W2; from IC50; read-out: pIC50 (converted)
# output: bare number, implied unit µM

What does the record list as IC50 for COc1ccc(/C=C/C(=O)c2ccccc2)cc1S(=O)(=O)Nc1ccc(Cl)cc1 ?
2.82

What does the record list as IC50 for COc1ccc(/C=C/C(=O)c2ccccc2)cc1S(=O)(=O)N1CCCC1 ?
2.07

What does the record list as IC50 for CCN(CC)S(=O)(=O)c1cc(/C=C/C(=O)c2ccccc2)ccc1OC ?
11

What does the record list as IC50 for COc1ccc(/C=C/C(=O)c2ccccc2)cc1S(=O)(=O)Nc1ccc(Cl)c(Cl)c1 ?
4.33

====

Test system: P. falciparum clone W2 (chloroquine-resistant)
Test: In vitro antiplasmodial activity, Giemsa-stained smear parasitaemia after 48 h
Assay type: cell-based, Plasmodium falciparum
Settings: Plasmodium falciparum; P. falciparum W2, 48 h incubation, triplicate, mean ± spread; read-out: IC50, in vitro antiplasmodial activity
Protocol: The human red blood cells and plasma were ceded by the Fundação Hemominas-Hemonúcleo Divinópolis. The synchronization of the parasites was achieved by sorbitol treatment and parasitaemia was determined microscopically in Giemsa-stained smears. Briefly, ring-stage parasites in sorbitol-synchronized blood cultures were added to 96-well culture plates with 2% parasitaemia and 2% haematocrit and then incubated with the test compounds. […]
Assign labels as follows, please: fulfilled for IC50 below 4000 nM; not fulfilled for IC50 equal to or exceeding 4000 nM.

In plain terms, does COc1ccc(/C=C/C(=O)c2ccccc2)cc1S(=O)(=O)N1CCCC1 come in under 4000 nM for IC50?
fulfilled

In plain terms, does COc1ccc(/C=C/C(=O)c2ccccc2)cc1S(=O)(=O)Nc1ccc(Cl)cc1 come in under 4000 nM for IC50?
fulfilled

In plain terms, does COc1ccc(/C=C/C(=O)c2ccccc2)cc1S(=O)(=O)Nc1ccc(Cl)c(Cl)c1 come in under 4000 nM for IC50?
not fulfilled

In plain terms, does COc1ccc(/C=C/C(=O)c2ccccc2)cc1S(=O)(=O)Nc1ccccc1 come in under 4000 nM for IC50?
fulfilled

In plain terms, does CCN(CC)S(=O)(=O)c1cc(/C=C/C(=O)c2ccccc2)ccc1OC come in under 4000 nM for IC50?
not fulfilled

In plain terms, does COc1ccc(/C=C/C(=O)c2ccccc2)cc1S(=O)(=O)NCc1ccccc1 come in under 4000 nM for IC50?
fulfilled

In plain terms, does COc1ccc(/C=C/C(=O)c2ccccc2)cc1S(=O)(=O)N1CCOCC1 come in under 4000 nM for IC50?
fulfilled

In plain terms, does COc1ccc(NS(=O)(=O)c2cc(/C=C/C(=O)c3ccccc3)ccc2OC)cc1 come in under 4000 nM for IC50?
fulfilled

In plain terms, does COc1ccc(/C=C/C(=O)c2ccccc2)cc1S(=O)(=O)N(C)C come in under 4000 nM for IC50?
not fulfilled

====

System: P. falciparum clone W2 (chloroquine-resistant)
Assay: In vitro antiplasmodial activity, Giemsa-stained smear parasitaemia after 48 h
Assay type: cell-based, Plasmodium falciparum
Details: Plasmodium falciparum, W2, 48 h, read-out: IC50, in vitro antiplasmodial activity
Description: The human red blood cells and plasma were ceded by the Fundação Hemominas-Hemonúcleo Divinópolis. The synchronization of the parasites was achieved by sorbitol treatment and parasitaemia was determined microscopically in Giemsa-stained smears. Briefly, ring-stage parasites in sorbitol-synchronized blood cultures were added to 96-well culture plates with 2% parasitaemia and 2% haematocrit and then incubated with the test compounds. […]
parameterMeasured: pIC50
pIC50 here is simply -log10 of the concentration when that concentration is written in mol/L.

What does the record list as pIC50 for CCN(CC)CCCC(C)Nc1ccnc2cc(Cl)ccc12 (stereo not shown) [CQ, chloroquine, reference compound] ?
6.35

====

Can you tell me CC50 at 48 h for the items I'm about to list?
assay: in vitro; assay type: cell-based; conditions: human

What does the record list as CC50 at 48 h for COc1ccc(NS(=O)(=O)c2cc(/C=C/C(=O)c3ccccc3)ccc2OC)cc1 ?
11.1 µM

What does the record list as CC50 at 48 h for COc1ccc(/C=C/C(=O)c2ccccc2)cc1S(=O)(=O)N1CCOCC1 ?
18.6 µM

What does the record list as CC50 at 48 h for COc1ccc(/C=C/C(=O)c2ccccc2)cc1S(=O)(=O)Nc1ccc(Cl)c(Cl)c1 ?
19 µM

What does the record list as CC50 at 48 h for COc1ccc(/C=C/C(=O)c2ccccc2)cc1S(=O)(=O)N(C)C ?
20.7 µM

What does the record list as CC50 at 48 h for COc1ccc(/C=C/C(=O)c2ccccc2)cc1S(=O)(=O)N1CCCC1 ?
9.18 µM

What does the record list as CC50 at 48 h for COc1ccc(/C=C/C(=O)c2ccccc2)cc1S(=O)(=O)Nc1ccc(Cl)cc1 ?
10.5 µM

What does the record list as CC50 at 48 h for COc1ccc(/C=C/C(=O)c2ccccc2)cc1S(=O)(=O)NCc1ccccc1 ?
9.42 µM

What does the record list as CC50 at 48 h for COc1ccc(/C=C/C(=O)c2ccccc2)cc1S(=O)(=O)Nc1ccccc1 ?
11.5 µM

What does the record list as CC50 at 48 h for CCN(CC)S(=O)(=O)c1cc(/C=C/C(=O)c2ccccc2)ccc1OC ?
20.7 µM

====

Tested on: P. falciparum clone W2 (chloroquine-resistant)
Experiment: In vitro antiplasmodial activity, Giemsa-stained smear parasitaemia after 48 h
Assay type: cell-based, Plasmodium falciparum
Details: Plasmodium falciparum; P. falciparum W2; from IC50; read-out: pIC50 (converted)
Method: The human red blood cells and plasma were ceded by the Fundação Hemominas-Hemonúcleo Divinópolis. The synchronization of the parasites was achieved by sorbitol treatment and parasitaemia was determined microscopically in Giemsa-stained smears. Briefly, ring-stage parasites in sorbitol-synchronized blood cultures were added to 96-well culture plates with 2% parasitaemia and 2% haematocrit and then incubated with the test compounds. […]
Can you tell me IC50 for the items I'm about to list?
Express the reported value numerically, then name its unit.

What does the record list as IC50 for COc1ccc(/C=C/C(=O)c2ccccc2)cc1S(=O)(=O)Nc1ccccc1 [Compound 1c] ?
2.03 µM

What does the record list as IC50 for COc1ccc(NS(=O)(=O)c2cc(/C=C/C(=O)c3ccccc3)ccc2OC)cc1 [Compound 1d] ?
3.64 µM

What does the record list as IC50 for COc1ccc(/C=C/C(=O)c2ccccc2)cc1S(=O)(=O)NCc1ccccc1 [Compound 1h] ?
1.96 µM

What does the record list as IC50 for COc1ccc(/C=C/C(=O)c2ccccc2)cc1S(=O)(=O)N(C)C [Compound 1b] ?
5.79 µM

What does the record list as IC50 for COc1ccc(/C=C/C(=O)c2ccccc2)cc1S(=O)(=O)N1CCOCC1 [Compound 1a] ?
2.07 µM
